In this section we review reported pKi values for a set of compounds.
Target: VIM-1 (Pseudomonas aeruginosa, UniProt A0A0F7KYQ8)
Test: In vitro enzyme inhibition assay, purified VIM-1 (imipenem hydrolysis, UV 299 nm)
Format: biochemical
Conditions: mean Ki from multiple experiments; imipenem 300 μM; Cheng-Prusoff from IC50; read-out: Ki VIM-1
pKi: −log10 of the molar value.
MEASURED_ENDPOINT: pKi

>>> observed_result("N#CNC(=N)NCC(=O)Nc1ccc(S(=O)(=O)Nc2scnc2C(=O)O)cc1F")
"6.00 to 6.30"
>>> observed_result("N=C(N)CC(=O)Nc1ccc(S(=O)(=O)Nc2scnc2C(=O)O)cc1F")
"6.30 to 6.70"
>>> observed_result("N=C(N)CNC(=O)Nc1ccc(S(=O)(=O)Nc2scnc2C(=O)O)cc1F")
"6.30 to 6.70"
>>> observed_result("N=C(N)NCC(=O)Nc1c(F)cc(S(=O)(=O)Nc2scnc2C(=O)O)cc1F")
"6.30 to 6.70"
>>> observed_result("N=C(N)CNC(=O)Cc1ccc(S(=O)(=O)Nc2scnc2C(=O)O)cc1F")
"6.30 to 6.70"
>>> observed_result("N=C(N)NCCSC(=O)Nc1ccc(S(=O)(=O)Nc2scnc2C(=O)O)cc1F")
"> 6.70"
>>> observed_result("O=C(CNC1=NCCN1)Nc1c(F)cc(S(=O)(=O)Nc2scnc2C(=O)O)cc1F")
"6.00 to 6.30"
>>> observed_result("COc1cc(S(=O)(=O)Nc2scnc2C(=O)O)ccc1NC(=O)CNC(=N)N")
"> 6.70"
>>> observed_result("N=C(N)Nc1ccc(S(=O)(=O)Nc2scnc2C(=O)O)cc1")
"6.30 to 6.70"

====

Experiment: PK study, i.v. dosing in mice
Format: in vivo, male Swiss albino mice
Details: mouse, plasma, iv; i.v. 1 mg/kg, male Swiss albino mice; read-out: C0 (plasma concentration)
MEASURED_ENDPOINT: C0 (µg/mL)

>>> observed_result("N=C(N)NCC(=O)Nc1ccc(S(=O)(=O)Nc2scnc2C(=O)O)cc1F [Example 7]")
1.81
>>> observed_result("NCC(=O)Nc1ccc(S(=O)(=O)Nc2scnc2C(=O)O)cc1F [Comp. A, reference compound]")
0.017

====

Molecular target: VIM-1 (Pseudomonas aeruginosa)
Test: In vitro enzyme inhibition assay, purified VIM-1 (imipenem hydrolysis, UV 299 nm)
Format: biochemical
Conditions: mean Ki from multiple experiments; imipenem 300 μM; Cheng-Prusoff from IC50; read-out: Ki VIM-1
pKi: −log10 of the molar value.
Listed below: pKi values for each entry.
MEASURED_ENDPOINT: pKi

>>> observed_result("N=C(N)N/N=C/C(=O)Nc1ccc(S(=O)(=O)Nc2scnc2C(=O)O)cc1F [Example 43]")
"6.30 to 6.70"
>>> observed_result("N=C(N)NCC(=O)Nc1ccc(S(=O)(=O)Nc2scnc2C(=O)O)nn1 [Example 14]")
"6.30 to 6.70"
>>> observed_result("O=C(CCC1=NCCN1)Nc1ccc(S(=O)(=O)Nc2scnc2C(=O)O)cc1F [Example 36]")
"6.30 to 6.70"
>>> observed_result("N=C(N)NCC(=O)Nc1ncc(S(=O)(=O)Nc2scnc2C(=O)O)s1 [Example 23]")
"> 6.70"
>>> observed_result("N=C(N)NCc1ccc(S(=O)(=O)Nc2scnc2C(=O)O)cc1F [Example 46]")
"6.30 to 6.70"
>>> observed_result("N=C(N)NCC(=O)Nc1ccc(S(=O)(=O)Nc2scnc2C(=O)O)cc1 [Example 20]")
"6.30 to 6.70"
>>> observed_result("N=C(NCCN)NCC(=O)Nc1ccc(S(=O)(=O)Nc2scnc2C(=O)O)cc1F [Example 39]")
"> 6.70"
>>> observed_result("N=C(N)NOCC(=O)Nc1ccc(S(=O)(=O)Nc2scnc2C(=O)O)cc1F [Example 42]")
"6.00 to 6.30"
>>> observed_result("N=C(N)NNC(=O)Cc1ccc(S(=O)(=O)Nc2scnc2C(=O)O)cc1F [Example 24]")
"6.00 to 6.30"
>>> observed_result("N=C(N)NCC(=O)Nc1ccc(S(=O)(=O)Nc2scnc2C(=O)O)cc1Cl [Example 17]")
"> 6.70"
>>> observed_result("N=C(N)NCC(=O)Nc1ccc(S(=O)(=O)Nc2scnc2C(=O)O)cc1F [Example 7]")
"6.30 to 6.70"
>>> observed_result("CN(CC(=O)Nc1ccc(S(=O)(=O)Nc2scnc2C(=O)O)cc1F)C(=N)N [Example 8]")
"6.30 to 6.70"
>>> observed_result("N=C(N)NCCOC(=O)Nc1ccc(S(=O)(=O)Nc2scnc2C(=O)O)cc1F [Example 27]")
"> 6.70"
>>> observed_result("N=C(N)NC(=O)Nc1ccc(S(=O)(=O)Nc2scnc2C(=O)O)cc1F [Example 28]")
"> 6.70"
>>> observed_result("O=C(CNC1=NCCN1)Nc1cc(F)c(S(=O)(=O)Nc2scnc2C(=O)O)cc1F [Example 10]")
"> 6.70"
>>> observed_result("N=C(NCC(=O)Nc1ccc(S(=O)(=O)Nc2scnc2C(=O)O)cc1F)N1CCOCC1 [Example 33]")
"6.30 to 6.70"
>>> observed_result("N=C(N)NCC(=O)Nc1ncc(S(=O)(=O)Nc2scnc2C(=O)O)cc1F [Example 3]")
"6.30 to 6.70"
>>> observed_result("N=C(N)NNC(=O)Nc1c(F)cc(S(=O)(=O)Nc2scnc2C(=O)O)cc1F [Example 26]")
"6.30 to 6.70"
